MEASURE: melting point

• O=C1c2ccccc2C(=O)N1C(Sc1ccccc1)c1ccccc1 (stereo not given) = 97 to 99 °C

We next turn to a different compound, shown below.
Fill in: melting point of COc1ccc2ccc(CC3=NOS(=O)N3)cc2c1 (stereo not given) is ___ 146 to 147 °C

---

MEASURE: melting point

Example entries and their recorded answers appear below.
• COC(=O)c1cncc(-c2ccc(OC)c([N+](=O)[O-])c2)c1 = 192 to 194 °C
• OC(c1ccccc1)c1cc2ccccc2cc1C(O)c1ccccc1 (stereo not given) = 145 °C
• COc1c(CN2CCOCC2)cccc1-c1nc2c(N[C@H]3[C@@H](C(N)=O)[C@@H]4C=C[C@H]3C4)c(Cl)cnc2[nH]1 = 133 to 137 °C

Fill in: melting point of CC(C)CC(Sc1ccccc1)c1c(O)cc(-c2ccccc2)oc1=O (stereo not given) is ___ 154 to 156 °C

Fill in: melting point of CC(=O)NC(C)Cc1ccc(OC(C)=O)cc1 (stereo not given) is ___ 97.5 to 99 °C
